FYI, the data here is from the supplement of paper PMC10126150.

- System: ATP;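 further: ATP exposure 15 min at 22 °C before imaging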
- Test description: switch fluorescence ratio, 500 uM ATP over buffer (Cy3 cluster intensity, sum of 5 cycles each) (fold (ratio)); higher = stronger signal-on switching upon ATP binding; sequences stand for … in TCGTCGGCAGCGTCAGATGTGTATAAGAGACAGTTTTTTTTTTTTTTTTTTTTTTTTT…TC
- Experimental setup: aptamer strand: ATP DNA aptamer (quencher-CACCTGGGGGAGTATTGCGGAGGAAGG + anchor), 100 nM annealed; ATP concentration: 500 uM
Lab note: anything with switch fluorescence ratio at or over 1 counts as satisfied; the rest go in not satisfied.

>  <Chain sequence>
TTCGCTGCCT

>  <Measurement target>
ATP;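 further: ATP exposure 15 min at 22 °C before imaging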

>  <Qualitative label>
satisfied

$$$$
>  <Chain sequence>
AACGACAATT

>  <Measurement target>
ATP;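 further: ATP exposure 15 min at 22 °C before imaging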

>  <Qualitative label>
satisfied

$$$$
>  <Chain sequence>
CGGAATTCAC

>  <Measurement target>
ATP;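 further: ATP exposure 15 min at 22 °C before imaging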

>  <Qualitative label>
satisfied

$$$$
>  <Chain sequence>
AGACTGAATT

>  <Measurement target>
ATP;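 further: ATP exposure 15 min at 22 °C before imaging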

>  <Qualitative label>
satisfied

$$$$
>  <Chain sequence>
TGGAGGAGCG

>  <Measurement target>
ATP;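 further: ATP exposure 15 min at 22 °C before imaging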

>  <Qualitative label>
not satisfied

$$$$

In the following, a different sequence is considered.
Query block: switch fluorescence ratio >= 1 for ACATGATGGC ?
Result block: satisfied

----------
- System: ATP;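 further: ATP exposure 15 min at 22 °C before imaging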
- Test description: switch fluorescence ratio, 500 uM ATP over buffer (Cy3 cluster intensity, sum of 5 cycles each) (fold (ratio)); higher = stronger signal-on switching upon ATP binding; sequences stand for … in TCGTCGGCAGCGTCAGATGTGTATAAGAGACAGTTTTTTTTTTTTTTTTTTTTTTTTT…TC
- Experimental setup: aptamer strand: ATP DNA aptamer (quencher-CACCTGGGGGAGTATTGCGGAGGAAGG + anchor), 100 nM annealed; ATP concentration: 500 uM
Measurement type: switch fluorescence ratio
// return a plain number; no unit text

Please review the following examples before continuing.
>  <Chain sequence>
CCTAGCGCGC

>  <switch fluorescence ratio>
1.09

$$$$
>  <Chain sequence>
TTTTTTGTAT

>  <switch fluorescence ratio>
1.02

$$$$
>  <Chain sequence>
GTTAGAGGGT

>  <switch fluorescence ratio>
1.01

$$$$
>  <Chain sequence>
ATTGGGGTG

>  <switch fluorescence ratio>
1.03

$$$$
>  <Chain sequence>
GCAATTTTTG

>  <switch fluorescence ratio>
1

$$$$

Query block: May I ask what switch fluorescence ratio has been recorded for CATTCTTCGC ?
Result block: 1.15

Query block: What measured switch fluorescence ratio goes with TTTGGGAGGT ?
Result block: 0.99

Query block: Any idea what its switch fluorescence ratio is? The sequence is AACTGTATAT
Result block: 1.15

Query block: Item under review: GGGGGTAGTT . Reported switch fluorescence ratio?
Result block: 1

Query block: Quick check: switch fluorescence ratio of ACGGTCGACT ?
Result block: 1.05

Query block: // lookup switch fluorescence ratio for GTAGCGCGTC
Result block: 1.03

Query block: Could you share which switch fluorescence ratio value was measured for GGTTTTCGAA ?
Result block: 1.01

Query block: Please report the recorded switch fluorescence ratio for AGTAAGGGGT .
Result block: 0.982

Query block: Consider the sequence GCTGCCACTA and give its measured switch fluorescence ratio.
Result block: 1

----------
- Test system: ATP;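 further: ATP exposure 15 min at 22 °C before imaging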
- Test description: switch fluorescence ratio, 500 uM ATP over buffer (Cy3 cluster intensity, sum of 5 cycles each) (fold (ratio)); higher = stronger signal-on switching upon ATP binding; sequences stand for … in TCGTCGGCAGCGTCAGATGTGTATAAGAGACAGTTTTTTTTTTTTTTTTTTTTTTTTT…TC
- Experimental setup: aptamer strand: ATP DNA aptamer (quencher-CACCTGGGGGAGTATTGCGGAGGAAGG + anchor), 100 nM annealed; ATP concentration: 500 uM
Reported switch fluorescence ratio is given for each of the following sequences.
Please reply with the number alone, leaving off any unit.

>  <Chain sequence>
AAGGGGTTGG

>  <Measurement target>
ATP;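 further: ATP exposure 15 min at 22 °C before imaging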

>  <Number>
1.01

$$$$
>  <Chain sequence>
CCATGAACAT

>  <Measurement target>
ATP;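 further: ATP exposure 15 min at 22 °C before imaging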

>  <Number>
1

$$$$
>  <Chain sequence>
CGAAATACGG

>  <Measurement target>
ATP;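 further: ATP exposure 15 min at 22 °C before imaging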

>  <Number>
2.83

$$$$

Now for a further sequence.
Query block: # input sequence: TTTTGATTAG ; wanted: its switch fluorescence ratio
Result block: 1.01

----------
- Tested on: ATP;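 further: ATP exposure 15 min at 22 °C before imaging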
- Test description: switch fluorescence ratio, 500 uM ATP over buffer (Cy3 cluster intensity, sum of 5 cycles each) (fold (ratio)); higher = stronger signal-on switching upon ATP binding; sequences stand for … in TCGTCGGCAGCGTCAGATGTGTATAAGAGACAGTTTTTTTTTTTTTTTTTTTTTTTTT…TC
- Experimental setup: aptamer strand: ATP DNA aptamer (quencher-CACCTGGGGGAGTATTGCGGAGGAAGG + anchor), 100 nM annealed; ATP concentration: 500 uM
Measured switch fluorescence ratio accompanies every entry in the list below.
Give your answer as a number; write no unit.

Observe how each entry below is paired with its result.
>  <Chain sequence>
CAGGGCTTAG

>  <switch fluorescence ratio>
1.01

$$$$
>  <Chain sequence>
TACTTACTAA

>  <switch fluorescence ratio>
1.19

$$$$
>  <Chain sequence>
TATGCGTTTT

>  <switch fluorescence ratio>
0.98

$$$$

Query block: Provide the documented switch fluorescence ratio with ATP as the system for TTCAATGCTC
Result block: 2.17

Query block: Hi! What's the reported switch fluorescence ratio for TACGGCGGGG on ATP?
Result block: 1.02

Query block: # value lookup — system ATP, readout switch fluorescence ratio, item GGGGGCTGAA;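 further: ATP exposure 15 min at 22 °C before imaging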
Result block: 0.985

Query block: Hi! What's the reported switch fluorescence ratio for GGGTAGAATT on ATP?
Result block: 1.03

Query block: Identify the measured switch fluorescence ratio of GGAGGAAGGG for ATP.
Result block: 0.983

Query block: Which switch fluorescence ratio is reported with ATP for this entry: ATAAGGGTTC ?
Result block: 1.03

Query block: What value of switch fluorescence ratio on ATP does TGGTCCGGGG have?
Result block: 1.01

----------
- Test system: ATP;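 further: ATP exposure 15 min at 22 °C before imaging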
- Test description: switch fluorescence ratio, 500 uM ATP over buffer (Cy3 cluster intensity, sum of 5 cycles each) (fold (ratio)); higher = stronger signal-on switching upon ATP binding; sequences stand for … in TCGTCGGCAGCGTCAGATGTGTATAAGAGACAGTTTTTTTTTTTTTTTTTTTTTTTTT…TC
- Experimental setup: aptamer strand: ATP DNA aptamer (quencher-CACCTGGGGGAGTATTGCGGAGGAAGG + anchor), 100 nM annealed; ATP concentration: 500 uM
Measurement type: switch fluorescence ratio
Just the number.

>  <Chain sequence>
ATAAGACCCG

>  <Measurement target>
ATP;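 further: ATP exposure 15 min at 22 °C before imaging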

>  <Number>
0.986

$$$$
>  <Chain sequence>
GTAGTATTAT

>  <Measurement target>
ATP;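 further: ATP exposure 15 min at 22 °C before imaging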

>  <Number>
0.991

$$$$
>  <Chain sequence>
TGTTAAACGC

>  <Measurement target>
ATP;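 further: ATP exposure 15 min at 22 °C before imaging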

>  <Number>
0.945

$$$$
>  <Chain sequence>
CGAGGATAGG

>  <Measurement target>
ATP;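 further: ATP exposure 15 min at 22 °C before imaging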

>  <Number>
0.999

$$$$
>  <Chain sequence>
AGGGATTGAA

>  <Measurement target>
ATP;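 further: ATP exposure 15 min at 22 °C before imaging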

>  <Number>
0.987

$$$$
>  <Chain sequence>
AAGGGGACCC

>  <Measurement target>
ATP;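 further: ATP exposure 15 min at 22 °C before imaging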

>  <Number>
1.04

$$$$
>  <Chain sequence>
CGTATTTATT

>  <Measurement target>
ATP;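 further: ATP exposure 15 min at 22 °C before imaging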

>  <Number>
1.01

$$$$
>  <Chain sequence>
TCCAGACGGC

>  <Measurement target>
ATP;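 further: ATP exposure 15 min at 22 °C before imaging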

>  <Number>
1

$$$$
>  <Chain sequence>
AAGAAAATAC

>  <Measurement target>
ATP;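 further: ATP exposure 15 min at 22 °C before imaging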

>  <Number>
1

$$$$
>  <Chain sequence>
ATGGATTTGT

>  <Measurement target>
ATP;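 further: ATP exposure 15 min at 22 °C before imaging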

>  <Number>
1.01

$$$$

Query block: Look up switch fluorescence ratio for this sequence: TTAAGCACTT
Result block: 1.19

----------
- System: ATP;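 further: ATP exposure 15 min at 22 °C before imaging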
- Test description: switch fluorescence ratio, 500 uM ATP over buffer (Cy3 cluster intensity, sum of 5 cycles each) (fold (ratio)); higher = stronger signal-on switching upon ATP binding; sequences stand for … in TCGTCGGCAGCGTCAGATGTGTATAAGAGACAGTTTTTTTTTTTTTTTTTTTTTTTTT…TC
- Experimental setup: aptamer strand: ATP DNA aptamer (quencher-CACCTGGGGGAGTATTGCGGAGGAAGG + anchor), 100 nM annealed; ATP concentration: 500 uM
Respond with Met for switch fluorescence ratio values of 1 and above, Not met for values below.

Use these answered entries as a reference point.
>  <Chain sequence>
TATAGAAAAT

>  <Qualitative label>
Met

$$$$
>  <Chain sequence>
ATCGTTGTAC

>  <Qualitative label>
Met

$$$$
>  <Chain sequence>
AGGGGCGGGC

>  <Qualitative label>
Not met

$$$$

Query block: Determine whether this sequence has switch fluorescence ratio no lower than 1: TTTGAAAGGT
Result block: Met

Query block: Given ATACTTAGGT , state whether its switch fluorescence ratio is at least 1.
Result block: Met

Query block: Hi team, for TAATAATTGG , is the recorded switch fluorescence ratio at or above 1?
Result block: Met

Query block: Evaluate GAATGTTAGT : switch fluorescence ratio at minimum 1?
Result block: Not met

Query block: Please check the record TCTCAATGCT and state if its switch fluorescence ratio is at or above 1.
Result block: Met

Query block: I'd appreciate it if you could say whether TAAAGTACGT has switch fluorescence ratio at least equal to 1.
Result block: Met

Query block: In plain terms: is recorded switch fluorescence ratio at least 1 for TTGGCACAAT ?
Result block: Met

Query block: Is the recorded value of switch fluorescence ratio equal to or greater than 1 for this sequence? TTGAAGTTAC
Result block: Met

Query block: Item CAACTGCATA with switch fluorescence ratio of 1 or above?
Result block: Met

Query block: switch fluorescence ratio >= 1 for ATAAGGCTCG ?
Result block: Not met
